- protocol description: Light stability in MCT oil (HPLC % area)
- Type: physicochemical
- protocol conditions: light exposure 1 h
Threshold-based label: Purity after 1 h (%) under 90% gives T, Purity after 1 h (%) not under 90% gives F.

Example entries and their recorded answers appear below.
CCC(=O)Oc1c(C/C=C(\C)CC/C=C(\C)CC/C=C(\C)CC/C=C(\C)CC/C=C(\C)CC/C=C(\C)CCC=C(C)C)c(C)c(OC(=O)[C@@H](NC(=O)OC(C)(C)C)C(C)C)c2ccccc12 [Example 10] :: F
CCOP(=O)(OC/C=C(\C)CC/C=C(\C)CC/C=C(\C)CC/C=C(\C)CC/C=C(\C)CC/C=C(\C)CCC=C(C)C)Oc1c(CC)c(C)c(OC(=O)c2ccccc2)c2ccccc12 (stereo not shown) [Example 4] :: T

Does the reported Purity after 1 h (%) of CC(C)=CCC/C(C)=C/CC/C(C)=C/CC/C(C)=C/CC/C(C)=C/CC/C(C)=C/CC/C(C)=C/Cc1c(C)c(OC(=O)c2ccc(C(F)(F)F)cc2)c2ccccc2c1OC(=O)c1ccc(C(F)(F)F)cc1 [Example 13] stay below 90%?
T

Again, but for CC(C)=CCC/C(C)=C/CC/C(C)=C/CC/C(C)=C/CC/C(C)=C/CC/C(C)=C/CC/C(C)=C/CC1=C(C)C(=O)c2ccccc2C1=O [MK-7, reference compound]
F

Again, but for CCC(=O)Oc1c(C)c(C/C=C(\C)CC/C=C(\C)CC/C=C(\C)CC/C=C(\C)CC/C=C(\C)CC/C=C(\C)CCC=C(C)C)c(OC(=O)CC)c2ccccc12 [Example 7]
F

Again, but for CC(C)=CCC/C(C)=C/CC/C(C)=C/CC/C(C)=C/CC/C(C)=C/CC/C(C)=C/CC/C(C)=C/Cc1c(C)c(OC(=O)c2ccccc2)c2ccccc2c1OC(=O)c1ccccc1 [Example 1]
F

Again, but for CC(C)=CCC/C(C)=C/CC/C(C)=C/CC/C(C)=C/CC/C(C)=C/CC/C(C)=C/CC/C(C)=C/Cc1c(C)c(O)c2ccccc2c1OC(=O)c1ccccc1 [Example 2A]
T

====

- protocol description: Light stability in ethyl acetate (HPLC % area)
- Type: physicochemical
- protocol conditions: in ethyl acetate, clear glass vial, initial time point
- Protocol: The light stability of MK-7 was compared certain example compounds as hereinbefore described. […] The samples were analyzed after 19 hours of light exposure or more. The samples were analyzed by HPLC using aHPLC_KB_001, with the HPLC conditions detailed below. […] The content of MK-7 and the MK-7 derivative in the samples have been quantified as % area of the total peak area in the chromatogram.
readout kind: Initial % (content as % area of the total peak area) (%)
Express your answer in %, writing the number without its unit.

Solved cases (3 shown):
CC(C)=CCC/C(C)=C/CC/C(C)=C/CC/C(C)=C/CC/C(C)=C/CC/C(C)=C/CC/C(C)=C/Cc1c(C)c(O)c2ccccc2c1OC(=O)c1ccccc1 [Example 2A] :: 93.3
CCC(=O)Oc1c(C)c(C/C=C(\C)CC/C=C(\C)CC/C=C(\C)CC/C=C(\C)CC/C=C(\C)CC/C=C(\C)CCC=C(C)C)c(OC(=O)CC)c2ccccc12 [Example 7] :: 98.5
CC(C)=CCC/C(C)=C/CC/C(C)=C/CC/C(C)=C/CC/C(C)=C/CC/C(C)=C/CC/C(C)=C/Cc1c(C)c(OC(=O)c2ccccc2)c2ccccc2c1O [Example 2B] :: 91.5

Which Initial % (content as % area of the total peak area) value belongs to CC(C)=CCC/C(C)=C/CC/C(C)=C/CC/C(C)=C/CC/C(C)=C/CC/C(C)=C/CC/C(C)=C/CC1=C(C)C(=O)c2ccccc2C1=O [MK-7, reference compound] ?
99.4

This collection of values is drawn from patent US10159687B2.
